System: HEK293 cells
Procedure text: Cell viability (MTT) of the TLR4-expressing HEK293 cells
Type: cell-based
Condition info: Test Con. 10 μM, percentage of viable LPS-stimulated cells
Listed here: items and their measured Cell Viability (%) mean.
Property measured: Cell Viability (%) mean

Compound: C=CC(=O)N(c1ccc(F)cc1Cl)S(=O)(=O)Cc1ccccc1 [Compound 36]
Readout number: 107.0

Compound: C=CC(=O)Nc1ccccc1S(=O)(=O)Nc1ccc(F)cc1Cl [Compound 44]
Readout number: 81.4

Compound: C=CC(=O)N(c1ccc(F)cc1Cl)S(=O)(=O)c1ccccc1 [Compound 19]
Readout number: 80

Compound: C=CC(=O)N1CCCc2cccc(S(=O)(=O)Nc3ccc(F)cc3F)c21 [Compound 15]
Readout number: 84.1

Compound: C=CC(=O)N(c1ccc(F)cc1Cl)S(=O)(=O)c1c(C)oc(C)c1C(=O)OC [Compound 42]
Readout number: 72.4

Compound: C=CC(=O)N(c1ccc(F)cc1Cl)S(=O)(=O)N1CCOC1=O [Compound 38]
Readout number: 61.6

Compound: C=CC(=O)N(c1ccc(F)cc1Cl)S(=O)(=O)c1c(C)noc1C [Compound 34]
Readout number: 63.0

Compound: C=CC(=O)c1ccccc1S(=O)(=O)N(C)c1ccccc1 [Compound 70]
Readout number: 79.7

Compound: C=C(C)C(=O)Nc1ccccc1S(=O)(=O)Nc1ccc(F)cc1Cl [Compound 45]
Readout number: 100.7

These data points were gathered from patent US20200247761A1.
